System: 855422-203-R-J1-PDC spheroids with HUVEC/MSC, viability;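 note: agents incubated with spheroids for one week before read-out; 100% = DMSO vehicle-treated control wells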
Protocol: Anticancer human tumor 855422-203-R-J1-PDC patient-derived bladder carcinoma cell line growth inhibition [PI3K]
Reported Conditions: second compound 0.0316 µM; first compound 0.316 µM; hits give low values
Property: viability, T/C; scope: individual compounds

[
  {
    "Compound": "CC(C)NCC(C(=O)N1CCN(c2ncnc3c2C(C)CC3O)CC1)c1ccc(Cl)cc1 (stereo not drawn) + Cc1nc(NC(=O)N2CCCC2C(N)=O)sc1-c1ccnc(C(C)(C)C(F)(F)F)c1",
    "viability, T/C": "80.7%"
  },
  {
    "Compound": "CC(Cn1ccc(-c2ccc(C#N)c(Cl)c2)n1)NC(=O)c1cc(C(C)O)[nH]n1 (stereo not drawn) + CC(Nc1ccc2c(c1)OCCn1cc(N3C(=O)OCC3C(F)F)nc1-2)C(N)=O",
    "viability, T/C": "82%"
  },
  {
    "Compound": "CCCS(=O)(=O)Nc1ccc(F)c(C(=O)c2c[nH]c3ncc(-c4ccc(Cl)cc4)cc23)c1F + COc1c(OCCCN2CCOCC2)ccc2c3n(c(=NC(=O)c4cnc(N)nc4)nc12)CCN3",
    "viability, T/C": "78.6%"
  }
]
